- Test system: H1 or H9 human embryonic stem cells
- experimental_details: Activin A bioassay: differentiation of human embryonic stem cells to definitive endoderm, cell number and SOX17 intensity by high content analysis (96-well, four days)
- Format: cell-based
- condition_parameters: supernatant concentration 1x, assay dilution 1:20; control = R&D Sys Activin A 100 ng/ml on same plate
Let's look at some molecules and their measured Sox 17 Intensity % of control.
test_readout: Sox 17 Intensity % of control (%)

* ACTN84: activin A variant peptide, SEQ ID 85 (protein) GLECDGKVNICCKKQSFGQAKDIGWNDWIIAPSGYHGGGCSGECPSHIAGTSGSSLSFHSTVINHYRMRGHSPFANLKSCCSPTKLRPMSMLYYDDGQNIIKKDIQNMVVEECGCT | 1.5
* ACTN47: activin A variant peptide, SEQ ID 48 (protein) GLECDGKVNYCCKKQNFVSFKDIGWNDWIIAPSGYHANECSGKCPSHIAGTSGSSLSFHSTVINHYRMRGHSPFSDMGSCCIPTKLRPMSMLYYDDGQNIIKKDIQNMIVEECGCS | 8.0
* ACTN79: activin A variant peptide, SEQ ID 80 (protein) GLECDGKVNICCKKQSFGQAKDIGWNDWIIAPSGYHGGGCTGECPSHIAGTSGSSLSFHSTVINHYRMRGHSPWANLKSCCSPTKLRPMSMLYYDDGQNIIKKDIQRMVVEECGCT | 1.8
* ACTN43: activin A variant peptide, SEQ ID 44 (protein) GLECDGKVNYCCKKQDFVSFKDIGWNDWIIAPSGYHANRCDGKCPSHIAGTSGSSLSFHSTVINHYRMRGHSPFSDMGACCVPTKLRPMSMLYYDDGQNIIKKDIQNMIVEECGCS | 0.2
* OriGene wildtype: wildtype human activin A expressed from commercial OriGene construct (Cat. No. TC118774, pCMV6-XL4); supernatant used as positive control (protein, UniProt P08476 311-426, looked up, Inhibin beta A chain activin A homodimer) Inhibin beta A chain: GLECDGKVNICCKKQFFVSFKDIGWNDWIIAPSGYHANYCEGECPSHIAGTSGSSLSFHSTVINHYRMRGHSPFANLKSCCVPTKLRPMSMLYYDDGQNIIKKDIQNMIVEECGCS | 9.9
* ACTN89: activin A variant peptide, SEQ ID 90 (protein) GLECDGKVNICCKKQLFGQTKDIGWNDWIIAPSGYHGGGCSGECPSHIAGTSGSSLSFHSTVINHYRMRGHSPNANLKSCCSPTKLRPMSMLYYDDGQNIIKKDIQNMKVEECGCT | 1.6
